Data provenance: ChEMBL document CHEMBL1201862

Overview of recorded GI50 for various molecules
- System: IGROV-1
- test.protocol: NCI tumour cell line growth inhibition, 48 h
The source made the active and inactive calls. No stated cut-off is given here; in the data, active = GI50 up to about 1.1 µM and inactive = higher. Where a SMILES comes first, the peptide text is derived from it. [ ]: non-standard residue; d: D form. Phe(4-NO2) = N[CH](Cc1ccc([N+](=O)[O-])cc1)C(=O)O

| molecule | GI50 |
| --- | --- |
| O=C1C(Br)=C(C2=CC(=P(c3ccccc3)(c3ccccc3)c3ccccc3)C=C2)C(=O)C(Br)=C1C1=CC(=P(c2ccccc2)(c2ccccc2)c2ccccc2)C=C1 | 40.3 µM (inactive) |
| C1CSCCCSCCCSCCCSCCCSCCCSCCCSCCCSC1 | > 100 µM (inactive) |
| CN(Nc1cc(=O)[nH]c(=O)[nH]1)c1ccccc1 | > 100 µM (inactive) |
| Cc1cc(C)nc(NS(=O)(=O)c2ccc(NNc3c4ccccc4nc4c(C(=O)Nc5ccc(S(=O)(=O)Nc6ncccn6)cc5)cccc34)cc2)n1 | 35 µM (inactive) |
| CO/C=C1\OC(=O)C=C1OC | > 100 µM (inactive) |
| Cc1ccc(-c2c(C#N)c(-c3ccc(C)cc3)n(NS(=O)(=O)c3ccccc3)c(=O)c2C#N)cc1 | 44.5 µM (inactive) |
| O=c1[nH]cc(OCC(F)(F)F)c(=O)[nH]1 | > 100 µM (inactive) |
| CC1(C)C(=O)c2ccccc2OC1N1CCN(C2Oc3ccccc3C(=O)C2(C)C)CC1 (configuration not stated) | > 100 µM (inactive) |
| COc1cc(-c2cccs2)sc1-c1cccs1 | 25.5 µM (inactive) |
| O=C(c1ccncc1)C1C(=O)c2ccccc2C1C1(O)c2ccccc2CC1C(O)c1ccncc1 (configuration not stated) | 40.5 µM (inactive) |
| Clc1cc(N/N=C(/c2ccccc2)c2ncccn2)ncn1 | 17.5 µM (inactive) |
| CC(=O)C(O)N1C(=O)C=CC1=O (configuration not stated) | 21.1 µM (inactive) |
| COc1ccc(C2C(Cl)C(=O)N2NC(=O)c2ccccc2O)cc1 (configuration not stated) | > 100 µM (inactive) |
| COc1ccc(C(=O)c2sc(Nc3ccccc3)nc2N)cc1 | 14.3 µM (inactive) |
| O=C(O)/C=C\C(=O)Nn1c(Cc2ccc(Cl)cc2)n[nH]c1=O | > 100 µM (inactive) |
| C=C1C(=O)OC2/C=C(\CO)C3OC3C3OC3(C)CC(OC(=O)/C(=C/C)COC(C)=O)C12 (configuration not stated) | 13.2 µM (inactive) |
| CCOC(=O)c1cc2c3c(c(C(C)=O)c(O)c2[nH]1)N(C(C)=O)CC3 | 31.8 µM (inactive) |
| O=C(O)CNC(=O)c1c2ccccc2nc2ccccc12 | > 100 µM (inactive) |
| CC(C)c1ccccc1NC(=O)/C(Cl)=C1/Sc2ccccc2NC1=O | 27 µM (inactive) |
| Nc1ncc(CN2CCCC2)c(-c2ccccc2O)n1 | > 750 µM (inactive) |
| COc1cc(Br)c(CC2(C#N)c3ccccc3C3C(N2C(=O)c2ccccc2)C3(Cl)Cl)cc1OC (configuration not stated) | > 65.5 µM (inactive) |
| CC1(C)CCC(C)(C)c2c1ccc(O)c2Cc1c(O)ccc2c1C(C)(C)CCC2(C)C | 1.97 µM (inactive) |
| C=CCc1cc(OC)c2c(c1)C(OC)CC(c1ccc(OC)c(OC)c1)O2 (configuration not stated) | > 100 µM (inactive) |
| COc1ccccc1C1SCC(=O)N1c1ccc(-n2c(-c3ccccc3)nc3ccccc3c2=O)cc1 (configuration not stated) | 46.6 µM (inactive) |
| Oc1ncc(Cl)c(O)n1 | > 100 µM (inactive) |
| COC(=O)CCC(NC(=O)C(CCC(=O)OC)NC(=O)C(CCC(=O)OC)NC(=O)C(CCC(=O)OC)NC(=O)C(CCC(=O)OC)NC(=O)C(Cc1ccc([N+](=O)[O-])cc1)NC(=O)C(CCC(=O)OC)NC(=O)C(CCC(=O)OC)NC(=O)C(CCC(=O)OC)NC(=O)C(CCC(=O)OC)NC(=O)C(CCC(=O)OC)NC(C)=O)C(N)=O (configuration not stated) (Ac-E(OMe)E(OMe)E(OMe)E(OMe)E(OMe)[Phe(4-NO2)]E(OMe)E(OMe)E(OMe)E(OMe)E(OMe)-NH2; configuration not given here) | > 100 µM (inactive) |
| O=C1CCCCC[C@]12SC[C@H]1CON=C12 | 47.5 µM (inactive) |

----------
- Tested on: OVCAR-8
- test.protocol: NCI tumour cell line growth inhibition, 48 h
Calls of active or inactive are those of the source. No stated cut-off is given here; in the data, active = GI50 up to about 1.1 µM and inactive = higher.
Classes used: active, inactive

| compound | measured.on | label |
| --- | --- | --- |
| CCOC(=O)C1CCC(=O)N1C(=O)c1ccccc1Cl (centres undefined) | OVCAR-8 | inactive |
| CN(N=O)C(=O)Nc1c[nH]c(=O)[nH]c1=O | OVCAR-8 | inactive |
| CC(=O)Oc1ccc2c(C)cc(=O)oc2c1OC(C)=O | OVCAR-8 | inactive |
| CC1=Cc2cccc(C)c2C(=O)C1=O | OVCAR-8 | inactive |
| COc1ccc(/N=N/C(=O)NC(Cc2ccccc2)C(=O)O)cc1 (centres undefined) | OVCAR-8 | inactive |
| CCC1c2[nH]c3ccccc3c2C[C@H]2C(=O)NC(CCC(=O)OC(C)(C)C)C(=O)N12 (some centres undefined) | OVCAR-8 | inactive |
| CC(C)C[C@H]1[C@@H](OCc2ccccc2)COS(=O)(=O)N1[C@H](C)c1ccccc1 | OVCAR-8 | inactive |
| C[C@@H]1[C@H](c2ccccc2)O[B-]2(c3ccc(Br)cc3)OC(=O)C[N+]12C (some centres undefined) | OVCAR-8 | inactive |
| Cc1cnc(NCCCN(C)C)c2c1[nH]c1ccc3cc(O)ccc3c12 | OVCAR-8 | active |
| C=CCCCCCCCCC(=O)NS(=O)(=O)c1ccccc1 | OVCAR-8 | inactive |
| O=C(CC1(O)C(=O)Nc2c(Cl)cc(Cl)cc21)c1ccccc1 (centres undefined) | OVCAR-8 | inactive |
| CC1=C(C(N)=O)C(c2ccncc2)C(C#N)=C2SCC(=O)N12 (centres undefined) | OVCAR-8 | inactive |
| CC(C)C1NC(=O)CC(c2ccccc2)N(N=O)C1c1ccccc1 (centres undefined) | OVCAR-8 | inactive |
| Cn1ccnc1S/C(=C\C=C(C#N)C#N)c1ccc(Cl)cc1 | OVCAR-8 | active |
| CC(/C=N/N=C1NCCCN1)=N\N=C1NCCCN1 | OVCAR-8 | inactive |
| CCOC(=O)C1S/C(=N/c2ccc(Cl)cc2C)N=C1C (centres undefined) | OVCAR-8 | inactive |
| Cc1cc2c(cc1N)C(C)C1(CCC(=O)N2Cc2ccccc2)OCCO1 (centres undefined) | OVCAR-8 | inactive |
| O=C1c2cccc3cccc(c23)C(=O)N1CCCNCCCCNCCCNCCCN1C(=O)c2cccc3cccc(c23)C1=O | OVCAR-8 | active |
| O=C(Nc1nnn[nH]1)c1nc(O)cc(-c2ccccc2)n1 | OVCAR-8 | inactive |

----------
- Tested on: CCRF-CEM
- test.protocol: NCI tumour cell line growth inhibition, 48 h
Active and inactive are the calls of the source. Rule as the data show it: active = GI50 up to about 1.1 µM and inactive = higher. Where a SMILES comes first, the peptide text is derived from it. [ ]: non-standard residue; d: D form. The star is where a group is joined. ξ: configuration not given here. ξD = NC(CC(=O)O)C(=O)O; Boc = CC(C)(C)OC(=O)*; Aib = CC(C)(N)C(=O)O; OBn = c1ccc(CO*)cc1
Classes used: active, inactive

| compound | measured.on | label |
| --- | --- | --- |
| Cc1ccc(C(=O)NCc2ccccc2)cc1/N=N/N(C)C | CCRF-CEM | inactive |
| CCCCCCCCCCCCCCCC(=O)OCC1OC(n2cc(F)c(=O)[nH]c2=O)C(NC(=O)N(CCCl)N=O)C(O)C1O (stereo not given) | CCRF-CEM | active |
| CC1(C)CCCCCC(O)C(O)CCC(C)(C)C1=O (stereo not given) | CCRF-CEM | inactive |
| Cc1ccn2c(c1)nc1nc3ccccc3nc12 | CCRF-CEM | inactive |
| CCOC(=O)/C(C#N)=C/c1[nH]c(C(=O)OCc2ccccc2)c(C)c1C | CCRF-CEM | inactive |
| c1ccc2[nH]c(-c3nc4ccccc4o3)nc2c1 | CCRF-CEM | inactive |
| CC(C)(C)OC(=O)NC(CC(=O)OCc1ccccc1)C(=O)NC(C)(C)C(N)=O (stereo not given) (Boc-[ξD](OBn)-[Aib]-NH2) | CCRF-CEM | inactive |
| COc1ccc2nc(NC(=O)C(=O)C(C(=O)c3ccccc3-c3ccccc3)C3OC(=O)c4ccccc43)sc2c1 (stereo not given) | CCRF-CEM | inactive |
| CCOC(=O)CC1(O)CCCCC1(Sc1ccc(C)cc1)Sc1ccc(C)cc1 (stereo not given) | CCRF-CEM | inactive |
| CC1=C(C(N)=O)C(c2ccncc2)C(C#N)=C2SCC(=O)N12 (stereo not given) | CCRF-CEM | inactive |
| NCCC1(N)CCNCC1 | CCRF-CEM | inactive |
| CC1OC(OC2C(O[C@@H]3C[C@@H]4CC[C@@H]5[C@H](CC[C@]6(C)C7C(C[C@@H]56)O[C@]5(CC[C@@H](C)CO5)[C@H]7C)[C@@]4(C)C[C@H]3O)OC(CO)C(O)C2O)C(O)C(O)C1O (stereo not given in full) | CCRF-CEM | inactive |
| Cc1ccc(-c2c(C#N)c(-c3ccc(C)cc3)n(NS(=O)(=O)c3ccccc3)c(=O)c2C#N)cc1 | CCRF-CEM | inactive |
| Oc1cc(-c2ccc[nH]2)nc2cc3c(cc12)OCO3 | CCRF-CEM | inactive |
| C=CCOC1=C(OCC=C)C(C2COC(C)(C)O2)OC1=O (stereo not given) | CCRF-CEM | inactive |
| CC(=O)Nc1ccc(C(=O)NN2C(=O)C(Cl)C2c2ccc(O)cc2)cc1 (stereo not given) | CCRF-CEM | inactive |
| CC(=O)O[C@H]1C(=O)[C@@]2(C)[C@H]([C@H](OC(=O)c3ccccc3)[C@]3(O)C[C@H](OC(=O)[C@H](O)[C@@H](NC(=O)c4ccccc4)c4ccccc4)C(C)=C1C3(C)C)[C@]1(OC(C)=O)CO[C@@H]1C[C@@H]2O | CCRF-CEM | active |
| CC(C)C1NC(=O)CC(c2ccccc2)N(N=O)C1c1ccccc1 (stereo not given) | CCRF-CEM | inactive |
| COC1N(C2CC(O)C(CO)O2)C(=O)NC(=O)C1(F)Br (stereo not given) | CCRF-CEM | inactive |
| COC(=O)[C@H](CC(C)C)NC(=O)[C@H](Cc1ccccc1)N1CC2C=CC1C2 (stereo not given in full) | CCRF-CEM | inactive |
